Biological target: T1, human IL-2Rα (human, UniProt P01589 22-240, limits assumed)
T1 construct: recombinant protein; also called hu IL-2R; human IL-2Ra
T1 sequence: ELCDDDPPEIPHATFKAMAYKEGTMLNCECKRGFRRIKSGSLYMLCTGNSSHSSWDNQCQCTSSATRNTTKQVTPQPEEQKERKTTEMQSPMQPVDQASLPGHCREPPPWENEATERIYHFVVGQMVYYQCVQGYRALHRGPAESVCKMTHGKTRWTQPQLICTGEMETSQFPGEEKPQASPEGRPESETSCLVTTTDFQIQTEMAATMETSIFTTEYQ
Assay: SPR, P.E. on immobilised antigen
measured.endpoint: koff (s⁻¹)
Report only the number, with the unit s⁻¹ understood.

FJ1427_P035MP01E12 (VHH, periplasmic extract; also called clone nr; 93) VHH: QVQLVESGGGLVQAGGSLRLSCAASGITFNDHTMAWFRQAPGKEREFVAARDWSDIITRYASSVKGRFTISRDNAGNTGFLQMNSLRPEDTAVYYCAAREGGVVAGVRSGAPYDYWGQGTQVTVSS :: 0.000141
FJ1427_P035MP01F07 (VHH, periplasmic extract; also called clone nr; 54) VHH: QVQLVESGGGLVQAGGSLRLSCAATGLTFRQHNMGWFRRAPGKEREFVAAISWNVGSTYFADSVKGRFTISRDNGKNMVYLQMNSLKPEDTAVYYCAADNIPLASDMRATATAYGYWGQGTQVTVSS :: 0.00067
FJ1427_P035MP05G08 (VHH, periplasmic extract; also called clone nr) VHH: QLQLVESGGGLVQAGGSLRLSCTASGLTFEGYAIGWFRQAPGKEREGVSYITGSDASTYYIDSVKGRFTISSDFAKSTVYLQMNNLKPEDTAVYYCAVDRLGSRGGYASSWWRSGDMDLWGKGTLVTVSS :: 0.000908

Could you now consider this next binder?
Q) Data request, read-out koff, for 2-MP01A02 (VHH, periplasmic extract; also called FJ1427_P035MP01A02) VHH: QVQLVESGGGLVQPGGSLRLSCATSGFTFRNNFMSWVRQAPGKGLEWVSTISYGGESTTYAESVKGRFTISRDNAKNTLYLQMNNLKPEDTAVYYCAKATSYDSIRSGSRGQGTQVTVSS
A) 0.00153
